# System: A498 renal
# ASSAY METHOD TEXT: NCI tumour cell line growth inhibition, 48 h
# TGI per record follows

// solved cases for TGI follow
INSERT INTO assay_data (compound, observed_value) VALUES
  ('CCCC(=O)[O-].CCCC(=O)[O-].N.N.N.N.[Co+3].[O-][Cl+3]([O-])([O-])[O-]', '> 100 µM'),
  ('CC(C)NCCCCCNc1cc(O)cc2cccnc12', '> 100 µM'),
  ('O=C1CCCC(=O)C1C(=O)c1ccc(C(F)(F)F)cc1[N+](=O)[O-]', '> 100 µM'),
  ('CC1=C2c3ccccc3N(S(=O)(=O)c3ccccc3)[C@H]2[C@H](C(=O)N2C3CC4CC[C@@]3(CS2(=O)=O)C4(C)C)CC1 (stereo partly specified)', '> 100 µM'),
  ('O=[N+]([O-])c1cc(C(F)(F)F)ccc1S(=O)(=O)N[C@@H]1CCCC[C@H]1NS(=O)(=O)c1ccc(C(F)(F)F)cc1[N+](=O)[O-]', '> 23.7 µM'),
  ('CC(=O)O[C@H]1CC[C@@]2(C)C(=CC[C@H]3[C@@H]4C/C(=C\c5ccncc5)[C@H](OC(C)=O)[C@@]4(C)CC[C@@H]32)C1', '26.7 µM'),
  ('Nc1nc(Sc2ccc([N+](=O)[O-])cn2)c2[nH]cnc2n1', '47.8 µM'),
  ('O=C(O)CP(=O)(c1ccccc1)c1ccccc1.O=C(O)CP(=O)(c1ccccc1)c1ccccc1.[Cd]', '39.8 µM'),
  ('O=C(/C=C/c1ccc(O)cc1)c1cc(O)cc(O)c1', '28.1 µM'),
  ('CS(=O)(=O)N(CC(=O)O)Cc1ccccc1', '> 100 µM');

Given the compound COc1ccc(/C(Cl)=C(\CNc2ccccn2)c2ccccc2)cc1OC , what is its reported TGI? > 100 µM

Which value of TGI has been reported for COc1ccc2[nH]cc(CN3CCC(CO)(c4ccccc4)CC3)c2c1 in the records? > 100 µM

I'd like to know its TGI. The compound in question is COc1cc2c(cc1OC)CN1CCc3ccccc3CC1C2 (stereo unspecified) > 100 µM

# query: TGI of entry COc1cc2c3c(c1OCc1ccccc1)NCCC3NCC2 (stereo unspecified) > 100 µM

Which TGI is reported for this compound? CC1=C2[C@@H](c3ccccc3)C3C=CC2(c2ccccc23)N(C(=O)Nc2cccc3ccccc23)C1=O (stereo partly specified) > 100 µM

What does the data say about its TGI? Entry: COc1cc([N+](=O)[O-])c(OC)cc1-c1nc2n(c1/C(N)=N/C(=N)N)CCS2 > 100 µM

Param item = COC(=O)c1cc(NC(=O)CN(CCN(CC(=O)O)CC(=O)Nc2ccc(O)c(C(=O)OC)c2)CC(=O)O)ccc1O ; retrieve measured TGI. > 100 µM

What TGI value was documented for this compound, O=C1C2C3CCC(C2C(=O)N1CO)C1C2C(=O)N(CO)C(=O)C2C31 (stereo unspecified) ? > 100 µM

====

# Tested on: NCI-H226 lung
# ASSAY METHOD TEXT: NCI tumour cell line growth inhibition, 48 h
METRIC NAME: TGI

For orientation, consider the following solved cases.
INSERT INTO measurements (molecule, assayed_system, metric_name, observed_value) VALUES
  ('CS(=O)(=O)c1ccc(-c2[nH]c3ccc(F)cc3c2/C=N/NC(N)=S)cc1', 'NCI-H226 lung', 'TGI', '> 100 µM'),
  ('O=[N+]([O-])c1cc(C(F)(F)F)ccc1S(=O)(=O)N[C@@H]1CCCC[C@H]1NS(=O)(=O)c1ccc(C(F)(F)F)cc1[N+](=O)[O-]', 'NCI-H226 lung', 'TGI', '> 46.6 µM'),
  ('O=C(Nc1cccc(-n2cc(-c3ccncc3)c(-c3ccc(O)c(Cl)c3)n2)c1)c1ccc(N2CCOCC2)c(C(F)(F)F)c1', 'NCI-H226 lung', 'TGI', '> 50 µM');

Test system NCI-H226 lung; read-out TGI; what value for CN1CC(S(=O)(=O)c2ccccc2)CC(S(=O)(=O)c2ccccc2)C1c1ccccc1 (stereo unspecified) ? 65.5 µM

Quick check: TGI on NCI-H226 lung, item COc1cc2c3c(c1OCc1ccccc1)NCCC3NCC2 (stereo unspecified) ? > 100 µM

Recorded TGI for CC(=O)OC1CC(C)c2c(Cl)ncnc21 (stereo unspecified) with NCI-H226 lung, please? > 100 µM

Please provide the recorded TGI for O=c1nc(-c2ccccc2)scc1-c1ccccc1 , tested on NCI-H226 lung. > 100 µM

Kindly state the measured TGI obtained for COC(=O)c1c2c(cc3c1CC1(C3)Cc3ccc4c(c3C1=O)CCC4)CCC2 (stereo unspecified) with NCI-H226 lung. > 30 µM

Entry source: PubChem BioAssay (NCI)
